# Study System: P2X7 receptor (hP2X7) (Homo sapiens (Human))
# Sequence (Q99572 whole entry): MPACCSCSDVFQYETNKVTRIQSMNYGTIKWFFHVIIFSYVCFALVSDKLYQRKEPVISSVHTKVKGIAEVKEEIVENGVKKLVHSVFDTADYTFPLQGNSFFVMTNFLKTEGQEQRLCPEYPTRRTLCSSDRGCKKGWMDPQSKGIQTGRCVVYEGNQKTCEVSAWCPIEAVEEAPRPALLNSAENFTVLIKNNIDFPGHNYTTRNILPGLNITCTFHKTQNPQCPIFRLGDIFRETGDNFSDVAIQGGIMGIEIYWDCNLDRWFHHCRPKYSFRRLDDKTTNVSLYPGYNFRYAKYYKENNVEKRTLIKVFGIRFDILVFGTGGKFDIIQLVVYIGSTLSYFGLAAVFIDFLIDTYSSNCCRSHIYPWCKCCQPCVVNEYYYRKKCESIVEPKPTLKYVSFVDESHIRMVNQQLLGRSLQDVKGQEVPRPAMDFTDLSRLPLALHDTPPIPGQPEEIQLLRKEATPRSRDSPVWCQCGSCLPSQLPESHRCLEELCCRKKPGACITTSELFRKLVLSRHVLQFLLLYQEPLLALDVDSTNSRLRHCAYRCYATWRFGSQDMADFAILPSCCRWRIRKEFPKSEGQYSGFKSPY
# Assay: Screen Quest Fluo-8 No Wash Calcium Assay (Bz-ATP-induced Ca2+ influx, FLIPR TETRA)
# Type: cell-based
# Stated Conditions: HEK-293 cells stably transfected with P2X7 receptor, Fluo-8 calcium, Low Divalent Cation Assay Buffer
Binary label based on IC50 with cut-off 100 nM: below gives Yes, not below gives No.

O=C(NCC(c1cncs1)N1CCOCC1)c1c(F)cccc1Cl (stereo not drawn) = Yes
O=C(NCC(c1cscn1)N1CCC(F)(F)CC1)c1c(F)cccc1Cl (stereo not drawn) = No
CCCc1ncc(C(CNC(=O)c2cc(-c3ncc(F)cn3)ccc2Cl)N2CCC(F)(F)CC2)s1 (stereo not drawn) = No
Cc1ncc(C(CNC(=O)c2cc(-c3ncc(F)cn3)ccc2Cl)N2CCC(F)(F)CC2)s1 (racemic) [Compound 61] = No
Cc1nc(C)c(C(CNC(=O)c2cc(-c3ncc(F)cn3)ccc2Cl)N2CCC(F)(F)CC2)o1 (stereo not drawn) = No

# evaluate next
Quick check: does Cc1ncc(C(CNC(=O)c2cc(-c3ncc(F)cn3)ccc2Cl)N2CCC(F)(F)CC2C)s1 (stereo not drawn) have IC50 under 100 nM? No
